- Test system: Salmonella typhimurium TA 98
- method_summary: Mutagenicity, reversion assay, TA 98
- Assay type: cell-based
- test_context: 5,000 μg/plate; control 13
- Excerpt: (ii) The strains TA 98 and TA 100 (both are histidine requiring) of Salmonella typhimurium were used in the reversion assay. […]
Exercise: for every item that follows, state its recorded Number of revertant colonies TA 98.
Numbers only, in number per plate.

Report Number of revertant colonies TA 98 for O=C(O)c1cccc(NC2O[C@H](CO)[C@@H](O)[C@H](O)[C@@H]2O)c1 (stereo partly drawn) [Specimen No. 3, Sodium m-aminobenzoate-N--D-mannoside] tested on Salmonella typhimurium TA 98.
6

Give me Number of revertant colonies TA 98 for each of these compounds, listed below.
1. C[C@@H]1OC(Nc2ccccc2C(=O)O)[C@H](O)[C@H](O)[C@H]1O (stereo partly drawn) [Specimen No. 2, Sodium o-aminobenzoate-N--L-rhamnoside]
2. O=C(O)c1ccc(NC2OC[C@@H](O)[C@H](O)[C@H]2O)cc1 (stereo partly drawn) [Specimen No. 7, Sodium p-aminobenzoate-N--D-xyloside]
3. O=C(O)c1ccc(NC2O[C@H](CO)[C@@H](O)[C@H](O)[C@@H]2O)cc1 (stereo partly drawn) [Specimen No. 4, Sodium p-aminobenzoate-N--D-mannoside]
4. C[C@@H]1OC(Nc2ccc(C(=O)O)cc2)[C@H](O)[C@H](O)[C@H]1O (stereo partly drawn) [Specimen No. 8, Sodium p-aminobenzoate-N--L-rhamnoside]
5. O=C(O)c1ccccc1NC1O[C@H](CO)[C@H](O)[C@H](O)[C@H]1O (stereo partly drawn) [Specimen No. 1, Sodium o-aminobenzoate-N--D-galactoside]

[9, 4, 5, 4, 6]

Give me Number of revertant colonies TA 98 for each of these compounds, listed below.
1. O=C(O)c1ccc(NC2(CO)OC[C@@H](O)[C@@H](O)[C@@H]2O)cc1 (stereo partly drawn) [Specimen No. 9, Sodium p-aminobenzoate-N--D-fructoside]
2. O=C(O)c1ccc(NC2O[C@H](CO)[C@H](O)[C@H](O)[C@H]2O)cc1 (stereo partly drawn) [Specimen No. 6, Sodium p-aminobenzoate-N--D-galactoside]

[5, 7]

----------
- method_summary: Acute oral toxicity (Litchfield-Wilcoxon)
- test_context: in vivo, mouse, 7 days
Exercise: for every item that follows, state its recorded LD50 at 168 h.
Give bare numbers, in mg/kg.

The cases that follow already have their LD50 at 168 h on record.
Please give the measured LD50 at 168 h for this molecule: C[C@@H]1OC(Nc2ccccc2C(=O)O)[C@H](O)[C@H](O)[C@H]1O (stereo partly drawn) [Specimen No. 2, Sodium o-aminobenzoate-N--L-rhamnoside]
12500

Please give the measured LD50 at 168 h for this molecule: C[C@@H]1OC(Nc2ccc(C(=O)O)cc2)[C@H](O)[C@H](O)[C@H]1O (stereo partly drawn) [Specimen No. 8, Sodium p-aminobenzoate-N--L-rhamnoside]
12800

Give me LD50 at 168 h for each of these molecules, listed below.
1. O=C(O)c1ccccc1NC1O[C@H](CO)[C@H](O)[C@H](O)[C@H]1O (stereo partly drawn) [Specimen No. 1, Sodium o-aminobenzoate-N--D-galactoside]
2. O=C(O)c1ccc(NC2OC[C@H](O)[C@H](O)[C@H]2O)cc1 (stereo partly drawn) [Specimen No. 10, Sodium p-aminobenzoate-N--L-arabinoside]
3. O=C(O)c1ccc(NC2O[C@H](CO)[C@H](O)[C@H](O)[C@H]2O)cc1 (stereo partly drawn) [Specimen No. 6, Sodium p-aminobenzoate-N--D-galactoside]
4. O=C(O)c1ccc(NC2OC[C@@H](O)[C@H](O)[C@H]2O)cc1 (stereo partly drawn) [Specimen No. 7, Sodium p-aminobenzoate-N--D-xyloside]

6100
10800
14600
11800
